experimental_system: Calmodulin-1 (Homo sapiens) (UniProt P0DP23)
protocol_text: CALM1 binders on microarrays, EGTA buffer, profiling panel, biochemical, small-molecule microarray, Cy5-labelled CALM1 (AID 1111);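 further: labelled calmodulin applied in Tris saline Tween buffer holding calcium plus EGTA and DTT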
conditions: Cy5-CALM1 binding fluorescence, higher = more signal
measured_attribute: composite z-score

{"compound": "CC(C)N1C(=O)[C@@]2(Cc3ccccc31)c1ccccc1C(=O)N(Cc1ccccc1Cl)[C@H]2c1ccc(CO)cc1", "result": -0.493}
{"compound": "COC(=O)[C@@]1(Cc2ccc(OC)cc2)[C@H]2c3cc(C(=O)N4CCCC4)n(Cc4ccc(C)c(F)c4F)c3C[C@H]2CN1C(=O)c1ccccc1", "result": 2.14}
{"compound": "CN(C)CCCC[C@@H]1NC(=O)[C@H]2C[C@@H](C(=O)NCCCCCCN)[C@@H](c3ccc(O)cc3)N2C1=O", "result": 1.67}
{"compound": "CCOC(=O)[C@H]1C/C=C/C[C@H](C(=O)OCC)C(=O)O[C@H]2[C@@H](OC)O[C@H](CO)[C@@H](OC(=O)c3c(OC)cccc3OC)[C@@H]2OC1=O", "result": 0.34}
{"compound": "O=C1OCCC/C=C\\[C@H]2OC34C=CCN(Cc5ccccc5)C(=O)[C@H]3N(CCCO)C(=O)[C@@H]4C12 (some centres not stated)", "result": -0.537}
{"compound": "COc1ccccc1CN1C(=O)c2ccccc2[C@@]2(Cc3ccccc3N(CC(C)C)C2=O)[C@@H]1c1ccc(CO)cc1", "result": -0.235}
{"compound": "COCCOC(=O)N1C(=O)[C@@]2(c3cc(C#Cc4ccc(OC)cc4)ccc31)[C@H](c1ccccc1OCCO)N1[C@H](c3ccccc3)[C@H](c3ccccc3)OC(=O)[C@H]1[C@@H]2C(=O)NC[C@H](O)c1ccccc1", "result": 1.03}
